- Test system: BCL2 G101V
- Test Protocol: TR-FRET competitive binding assay, BCL2 G101V
- Parameters: species or system human
- Run Conditions: ratio Ki BCL2 G101V / Ki BCL2 WT
Recorded TR_FRET EKI G101V/WT selectivty ratio split into classes 0 = under 5, 1 = from 5 up to 6, 2 = 6 and over

# Compound, Label Value
rows = [
    ("Cc1c(N(C(=O)c2cc(-c3cc4c(cc3C(=O)N3Cc5ccccc5C[C@H]3CN3CCCCC3)CN(C(=O)Cc3ccc(OCCN5CCN(C)CC5)cc3)CC4)n(C)c2C)c2ccc(O)cc2)cc(C#N)n1C [Example 119]", 1),
    ("Cc1c(N(C(=O)c2cc(-c3cc4c(cc3C(=O)N3Cc5ccccc5C[C@H]3C)CN(C(=O)Cc3ccc(F)cc3F)CC4)n(C)c2C)c2ccc(O)cc2)cc(C#N)n1C [Example 11]", 0),
    ("Cc1c(N(C(=O)c2cc(-c3cc4c(cc3C(=O)N3Cc5ccccc5C[C@H]3C)CN(C(=O)Cc3ccc(Br)cc3F)CC4)n(C)c2C)c2ccc(O)cc2)cc(C#N)n1C [Example 24]", 0),
    ("Cc1c(C(=O)N(c2ccc(O)cc2)c2ccc(OC(C)C)c(C#N)c2)cc(-c2cc3c(cc2C(=O)N2Cc4ccccc4C[C@H]2CN2CCCCC2)CN(C(=O)Cc2ccc(OCCN4CCOCC4)cc2F)CC3)n1C [Example 168]", 0),
    ("Cc1c(C(=O)N(c2ccccc2)c2cnc3c(cnn3C)c2)cc(-c2cc3c(cc2C(=O)N2Cc4ccccc4C[C@H]2C)CN(C(=O)Cc2ccc(OCCN4CCOCC4)cc2F)CC3)n1C [Example 194]", 2),
    ("Cc1c(N(C(=O)c2cc(-c3cc4c(cc3C(=O)N3Cc5ccccc5C[C@H]3CCN3CCCCC3)CN(C(=O)Cc3ccc(OCCN5CCOCC5)cc3F)CC4)n(C)c2C)c2ccc(O)cc2)cc(C#N)n1C [Example 74]", 0),
    ("Cc1c(N(C(=O)c2cc(-c3cc4c(cc3C(=O)N3Cc5ccccc5C[C@H]3CN3CCCCC3)CN(C(=O)Cc3ccc(CCN5CCC(F)(F)CC5)cc3)CC4)n(C)c2C)c2ccc(O)cc2)cc(C#N)n1C [Example 131]", 2),
    ("Cc1c(N(C(=O)c2cc(-c3cc4c(cc3C(=O)N3Cc5ccccc5C[C@H]3C)CN(C(=O)Cc3ccc(C5CCN(CC(F)F)CC5)cc3F)CC4)n(C)c2C)c2ccc(O)cc2)cc(C#N)n1C [Example 48]", 0),
    ("Cc1c(C(=O)N(c2ccccc2)c2cnc3c(cnn3C)c2)cc(-c2cc3c(cc2C(=O)N2Cc4ccccc4C[C@H]2C)CN(C(=O)Cc2ccc(OCCN4CCOCC4)cc2)CC3)n1C [Example 195]", 2),
    ("Cc1c(N(C(=O)c2cc(-c3cc4c(cc3C(=O)N3Cc5ccccc5C[C@H]3CN3CCCCC3)CN(C(=O)Cc3ccc(OCCN5CCOC(C)C5)cc3F)CC4)n(C)c2C)c2ccc(O)cc2)cc(C#N)n1C (single isomer, unassigned) [Example 109]", 1),
    ("Cc1c(N(C(=O)c2cc(-c3cc4c(cc3C(=O)N3Cc5ccccc5C[C@H]3C)CN(C(=O)Cc3ccc(N5CCC(N6CCOCC6)C5)cc3)CC4)n(C)c2C)c2ccc(O)cc2)cc(C#N)n1C (single isomer, unassigned) [Example 63]", 2),
    ("Cc1c(N(C(=O)c2cc(-c3cc4c(cc3C(=O)N3Cc5ccccc5C[C@H]3CN(C)C(C)C)CN(C(=O)Cc3ccc(OCCN5CCOCC5)cc3F)CC4)n(C)c2C)c2ccc(O)cc2)cc(C#N)n1C [Example 91]", 2),
    ("Cc1c(N(C(=O)c2cc(-c3cc4c(cc3C(=O)N3Cc5ccccc5C[C@H]3CN3CCC(F)(F)CC3)CN(C(=O)Cc3ccc(OCCN5CCOCC5)cc3F)CC4)n(C)c2C)c2ccc(O)cc2)cc(C#N)n1C [Example 130]", 1),
    ("Cc1c(C(=O)N(c2ccc(O)cc2)c2ccc3c(cnn3C)c2)cc(-c2cc3c(cc2C(=O)N2Cc4ccccc4C[C@H]2C)CN(C(=O)Cc2ccc(OCCN4CCOCC4)cc2)CC3)n1C [Example 90]", 0),
    ("Cc1c(N(C(=O)c2cc(-c3cc4c(cc3C(=O)N3Cc5ccccc5C[C@H]3CN3CCCCC3)CN(C(=O)Cc3ccc(OCCN(C)CC5COC5)cc3F)CC4)n(C)c2C)c2ccc(O)cc2)cc(C#N)n1C [Example 103]", 2),
    ("Cc1c(N(C(=O)c2cc(-c3cc4c(cc3C(=O)N3Cc5ccccc5C[C@H]3CN3CCCCC3)CN(C(=O)Cc3ccc(COCC5CCOCC5)cc3)CC4)n(C)c2C)c2ccc(O)cc2)cc(C#N)n1C [Example 149]", 2),
]

Origin of measurements: patent US20250179047A1
